# system.under.test: Recombinant human mPGES-1 (Homo sapiens, UniProt O14684)
# Sequence (O14684 1-152): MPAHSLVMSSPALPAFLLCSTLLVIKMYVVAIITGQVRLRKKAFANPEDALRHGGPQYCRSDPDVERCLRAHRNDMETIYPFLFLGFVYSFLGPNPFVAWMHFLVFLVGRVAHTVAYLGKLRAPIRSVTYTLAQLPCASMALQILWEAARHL
# assay.protocol: In-vitro mPGES-1 enzyme inhibition assay (PGE2 formation from PGH2, HTRF detection)
# Assay type: biochemical
# protocol.conditions: 1 μM test compound; recombinant human mPGES-1 microsomal fraction; read-out: Percentage inhibition at 1 μM
experimental.readout: inhibition at 1 µM (%)
Could you give me the number in %? Just the number is fine.

[Q] Answer briefly: inhibition at 1 µM recorded on Recombinant human mPGES-1 (Homo sapiens, UniProt O14684) for CC1(C)Cc2c(c(C(=O)N3CCOCC3)cc3nc(Nc4c(Cl)cncc4Cl)[nH]c23)O1 [Example-20]
[A] 10.5

[Q] Answer briefly: inhibition at 1 µM recorded on Recombinant human mPGES-1 (Homo sapiens, UniProt O14684) for CC1(C)Cc2c(c(C(=O)Nc3ccc(C(F)(F)F)cn3)cc3nc(Nc4c(F)cccc4Cl)[nH]c23)O1 [Example-122]
[A] 96

[Q] Answer briefly: inhibition at 1 µM recorded on Recombinant human mPGES-1 (Homo sapiens, UniProt O14684) for CC1(C)Cc2c(c(C(=O)Nc3ccc(C4CC4)cc3)cc3nc(Nc4c(F)cccc4Cl)[nH]c23)O1 [Example-140]
[A] 97.1

[Q] Answer briefly: inhibition at 1 µM recorded on Recombinant human mPGES-1 (Homo sapiens, UniProt O14684) for CC1(C)Cc2c(c(C(=O)Nc3ccc(C(F)(F)F)cc3)cc3nc(Nc4ccccc4Cl)[nH]c23)O1 [Example-89]
[A] 97.1

[Q] Answer briefly: inhibition at 1 µM recorded on Recombinant human mPGES-1 (Homo sapiens, UniProt O14684) for CC1(C)Cc2c(c(C(=O)Nc3ccc(C(F)(F)F)cn3)cc3nc(Nc4c(Cl)cccc4Cl)[nH]c23)O1 [Example-101]
[A] 97.6

[Q] Answer briefly: inhibition at 1 µM recorded on Recombinant human mPGES-1 (Homo sapiens, UniProt O14684) for Cc1nc2c(o1)c(C(=O)Nc1ccc(F)c(C(F)(F)F)c1)cc1nc(Nc3c(F)cccc3Cl)[nH]c12 [Example-187]
[A] 95.8

[Q] Answer briefly: inhibition at 1 µM recorded on Recombinant human mPGES-1 (Homo sapiens, UniProt O14684) for Cc1csc(NC(=O)c2cc3nc(Nc4c(F)cccc4Cl)[nH]c3c3c2OC(C)(C)C3)n1 [Example-54]
[A] 79.2

[Q] Answer briefly: inhibition at 1 µM recorded on Recombinant human mPGES-1 (Homo sapiens, UniProt O14684) for Cc1cc2c(o1)c(C(=O)Nc1ccccc1F)cc1nc(Nc3c(Cl)cccc3Cl)[nH]c12 [Example-67]
[A] 92.8

[Q] Answer briefly: inhibition at 1 µM recorded on Recombinant human mPGES-1 (Homo sapiens, UniProt O14684) for Cn1c(Nc2c(Cl)cncc2Cl)nc2cc(C(=O)Nc3cc(C4CC4)ccc3F)c3c(c21)CC(C)(C)O3 [Example-217]
[A] 96.2

[Q] Answer briefly: inhibition at 1 µM recorded on Recombinant human mPGES-1 (Homo sapiens, UniProt O14684) for CC1CC2CC(C1NC(=O)c1cc3nc(Nc4c(Cl)cncc4Cl)[nH]c3c3c1OC(C)(C)C3)C2(C)C (stereo not drawn) [Example-17]
[A] 98

[Q] Answer briefly: inhibition at 1 µM recorded on Recombinant human mPGES-1 (Homo sapiens, UniProt O14684) for Cc1cc2c(o1)c(C(=O)NCc1ccc(F)cc1)cc1nc(Nc3c(Cl)cccc3Cl)[nH]c12 [Example-35]
[A] 89.3

[Q] Answer briefly: inhibition at 1 µM recorded on Recombinant human mPGES-1 (Homo sapiens, UniProt O14684) for CC1(C)Cc2c(c(C(=O)Nc3ccc(F)c(C(F)(F)F)c3)cc3nc(Nc4c(F)cccc4Cl)[nH]c23)O1 [Example-104]
[A] 100

[Q] Answer briefly: inhibition at 1 µM recorded on Recombinant human mPGES-1 (Homo sapiens, UniProt O14684) for CC1(C)Cc2c(c(C(=O)Nc3ccccc3C(F)(F)F)cc3nc(Nc4ccccc4C(C)(C)C)[nH]c23)O1 [Example-98]
[A] 12

[Q] Answer briefly: inhibition at 1 µM recorded on Recombinant human mPGES-1 (Homo sapiens, UniProt O14684) for CC1(C)Cc2c(c(C(=O)Nc3ccc(Cl)cc3)cc3nc(Nc4c(Cl)cncc4Cl)[nH]c23)O1 [Example-15]
[A] 97.5

[Q] Answer briefly: inhibition at 1 µM recorded on Recombinant human mPGES-1 (Homo sapiens, UniProt O14684) for Cc1nc2c(o1)c(C(=O)NCC1CCCCC1)cc1nc(Nc3c(Cl)cccc3Cl)[nH]c12 [Example-183]
[A] 97.5
